Biological target: ERα-417 / SRC-3-NRD (Homo sapiens, UniProt P03372, C381S/C530S)
Sequence (P03372 304-554 C381S/C530S limits assumed): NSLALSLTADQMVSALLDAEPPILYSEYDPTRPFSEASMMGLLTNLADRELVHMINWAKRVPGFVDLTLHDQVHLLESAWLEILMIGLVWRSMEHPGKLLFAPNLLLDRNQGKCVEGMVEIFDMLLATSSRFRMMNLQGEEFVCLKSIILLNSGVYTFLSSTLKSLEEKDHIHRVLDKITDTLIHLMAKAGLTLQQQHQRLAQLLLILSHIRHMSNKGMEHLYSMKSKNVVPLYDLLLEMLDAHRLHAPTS
Experiment: In vitro coactivator binding inhibitor TR-FRET CBI assay (displacement of SRC3)
Conditions: repeat run; * = very small dynamic range compared to positive control; read-out: TR-FRET Repeat
pIC50: −log10 of the molar value.
observable: pIC50

A: CN(C)CCOc1ccc(-c2ccc(OCC(=O)O)c(Cc3ccccc3)c2)cc1Cc1ccccc1
B: CCC(C)c1cc(-c2ccc(OCC(=O)O)c(C(C)CC)c2)ccc1OCCN(C)C (stereo not shown)
C: CC(C)c1cc(-c2ccc(OCC(=O)O)c(C(C)C)c2)ccc1OCCN(C)C
D: CN(C)CCOc1ccc(-c2ccc(OCC(=O)O)cc2)cc1
Reorder: pIC50, max to min. # list labels per requested ordering
B, C, A, D
(B: 3.64, C: 3.23, A: 2.96, D: 2.69)

---

Molecular target: purified full-length human ERβ (Homo sapiens)
Construct: purified full-length human ERα and ERβ were purchased from PanVera/Invitrogen; purchased PanVera/Invitrogen (Carlsbad, Calif.)
Sequence (Q92731 whole entry): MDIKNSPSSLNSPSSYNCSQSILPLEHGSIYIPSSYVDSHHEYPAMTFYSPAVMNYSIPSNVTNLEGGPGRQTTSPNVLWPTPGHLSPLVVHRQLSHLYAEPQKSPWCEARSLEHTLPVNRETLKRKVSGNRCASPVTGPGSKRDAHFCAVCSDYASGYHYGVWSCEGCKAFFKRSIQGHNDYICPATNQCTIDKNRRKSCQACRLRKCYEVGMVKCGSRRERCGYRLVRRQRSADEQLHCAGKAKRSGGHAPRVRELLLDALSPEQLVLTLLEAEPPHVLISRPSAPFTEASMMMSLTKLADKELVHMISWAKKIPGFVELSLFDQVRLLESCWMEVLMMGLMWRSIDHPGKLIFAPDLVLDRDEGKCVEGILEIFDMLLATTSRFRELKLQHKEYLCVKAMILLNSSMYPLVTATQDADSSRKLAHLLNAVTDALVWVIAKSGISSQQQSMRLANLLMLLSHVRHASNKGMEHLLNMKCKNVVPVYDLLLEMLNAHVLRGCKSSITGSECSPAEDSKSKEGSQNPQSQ
Assay: Estrogen receptor relative binding affinity assay, competitive radiometric, [3H]estradiol tracer
Conditions: RBA of estradiol set to 100%; 18-24 h at 0° C.
Each record here notes measured ERβ RBA.

CCC(C)c1cc(-c2ccc(OCC(=O)O)c(C(C)CC)c2)ccc1OCCN(C)C (stereo not shown) [AW-87] = ~0.001%
CN(C)CCOc1ccc(-c2ccc(OCC(=O)O)cc2)cc1 [PW-83] = <0.001%
CN(C)CCOc1ccc(-c2ccc(OCC(=O)O)c(Cc3ccccc3)c2)cc1Cc1ccccc1 [PW-81] = ~0.001%

Now look at this one.
Tell me the measured ERβ RBA of CC(C)c1cc(-c2ccc(OCC(=O)O)c(C(C)C)c2)ccc1OCCN(C)C [PW-80] , please.
<0.001%

---

Target: ERα-417 / SRC-3-NRD (Homo sapiens, UniProt P03372, C381S/C530S)
Sequence (P03372 304-554 C381S/C530S limits assumed): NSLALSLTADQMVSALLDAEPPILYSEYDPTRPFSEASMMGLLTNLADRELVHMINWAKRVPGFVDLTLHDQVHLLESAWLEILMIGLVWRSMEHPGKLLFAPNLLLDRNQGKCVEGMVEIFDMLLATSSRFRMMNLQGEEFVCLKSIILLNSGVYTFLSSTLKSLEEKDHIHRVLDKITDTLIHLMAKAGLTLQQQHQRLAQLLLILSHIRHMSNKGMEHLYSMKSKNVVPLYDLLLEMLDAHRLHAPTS
Assay: In vitro coactivator binding inhibitor TR-FRET CBI assay (displacement of SRC3)
Conditions: estradiol 1 μM; * = very small dynamic range compared to positive control; read-out: TR-FRET IC50
pIC50: −log10 of the molar value.
observable: pIC50

Worked examples, 2 compounds total:
CN(C)CCOc1ccc(-c2ccc(OCC(=O)O)c(Cc3ccccc3)c2)cc1Cc1ccccc1 [PW-81] = 3.79
CCC(C)c1cc(-c2ccc(OCC(=O)O)c(C(C)CC)c2)ccc1OCCN(C)C (stereo not shown) [AW-87] = 4.06

a: CC(C)c1cc(-c2ccc(OCC(=O)O)c(C(C)C)c2)ccc1OCCN(C)C [PW-80]
b: CN(C)CCOc1ccc(-c2ccc(OCC(=O)O)cc2)cc1 [PW-83]
Given the listed items, does a or b have the lesser reported pIC50? Pick one; state its label.
b
(b: 3.69, a: 4.26)

---

Target: full-length ER alpha (Homo sapiens)
Construct: 100 ng of full-length ER alpha expression vector; expressed in transfected cells; host or cells: HEC-1 (human endometrial cancer) cells
Assay: Cell-based luciferase reporter gene assay (2ERE Luc) in HEC-1 cells
Details: HEC-1 cells, in the presence of estradiol; * = very small dynamic range compared to positive control; read-out: Reporter Gene IC50
pIC50: −log10 of the molar value.
observable: pIC50

Consider the reported pIC50 for these molecules:
CC(C)c1cc(-c2ccc(OCC(=O)O)c(C(C)C)c2)ccc1OCCN(C)C = 4.68
CN(C)CCOc1ccc(-c2ccc(OCC(=O)O)c(C(C)(C)C)c2)cc1C(C)(C)C = 5.22
CCC(C)c1cc(-c2ccc(OCC(=O)O)c(C(C)CC)c2)ccc1OCCN(C)C (centres unmarked) = 5.74

a: CN(C)CCOc1ccc(-c2ccc(OCC(=O)O)c(Cc3ccccc3)c2)cc1Cc1ccccc1
b: CN(C)CCOc1ccc(-c2ccc(OCC(=O)O)cc2)cc1
Endpoint returns the identifier whose pIC50 is numerically larger, either a or b . # reply format: chosen label
b

---

Target: full-length ER alpha (Homo sapiens, UniProt P03372)
Construct: 100 ng of full-length ER alpha expression vector; expressed in transfected cells; host or cells: HEC-1 (human endometrial cancer) cells
Sequence (P03372 1-595): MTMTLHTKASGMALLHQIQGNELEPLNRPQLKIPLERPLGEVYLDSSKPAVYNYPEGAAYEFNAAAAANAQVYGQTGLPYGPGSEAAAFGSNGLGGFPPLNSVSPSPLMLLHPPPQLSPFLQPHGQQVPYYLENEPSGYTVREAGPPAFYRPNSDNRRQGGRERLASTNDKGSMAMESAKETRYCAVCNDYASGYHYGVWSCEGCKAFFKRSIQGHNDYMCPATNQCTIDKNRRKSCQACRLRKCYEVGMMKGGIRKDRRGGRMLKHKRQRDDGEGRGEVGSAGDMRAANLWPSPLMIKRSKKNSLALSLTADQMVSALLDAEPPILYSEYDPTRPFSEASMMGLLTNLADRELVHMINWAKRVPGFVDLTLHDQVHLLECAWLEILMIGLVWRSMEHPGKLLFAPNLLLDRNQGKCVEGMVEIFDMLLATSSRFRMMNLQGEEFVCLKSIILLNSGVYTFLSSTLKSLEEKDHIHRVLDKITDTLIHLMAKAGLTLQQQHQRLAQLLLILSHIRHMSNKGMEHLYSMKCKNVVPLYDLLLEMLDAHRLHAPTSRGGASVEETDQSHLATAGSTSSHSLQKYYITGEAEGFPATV
Test: Cell-based luciferase reporter gene assay (2ERE Luc) in HEC-1 cells
Settings: repeat run; * = very small dynamic range compared to positive control; read-out: Reporter Gene IC50 (μM) - repeat
observable: IC50 (µM)

I: CCC(C)c1cc(-c2ccc(OCC(=O)O)c(C(C)CC)c2)ccc1OCCN(C)C (centres unmarked) [AW-87]
II: CN(C)CCOc1ccc(-c2ccc(OCC(=O)O)cc2)cc1 [PW-83]
Between I and II , which one shows the larger IC50 value? Could you answer with the label of the item you picked?
II

---

Biological target: purified full-length human ERα (Homo sapiens, UniProt P03372)
Construct: purified full-length human ERα and ERβ were purchased from PanVera/Invitrogen; purchased PanVera/Invitrogen (Carlsbad, Calif.)
Sequence (P03372 1-595): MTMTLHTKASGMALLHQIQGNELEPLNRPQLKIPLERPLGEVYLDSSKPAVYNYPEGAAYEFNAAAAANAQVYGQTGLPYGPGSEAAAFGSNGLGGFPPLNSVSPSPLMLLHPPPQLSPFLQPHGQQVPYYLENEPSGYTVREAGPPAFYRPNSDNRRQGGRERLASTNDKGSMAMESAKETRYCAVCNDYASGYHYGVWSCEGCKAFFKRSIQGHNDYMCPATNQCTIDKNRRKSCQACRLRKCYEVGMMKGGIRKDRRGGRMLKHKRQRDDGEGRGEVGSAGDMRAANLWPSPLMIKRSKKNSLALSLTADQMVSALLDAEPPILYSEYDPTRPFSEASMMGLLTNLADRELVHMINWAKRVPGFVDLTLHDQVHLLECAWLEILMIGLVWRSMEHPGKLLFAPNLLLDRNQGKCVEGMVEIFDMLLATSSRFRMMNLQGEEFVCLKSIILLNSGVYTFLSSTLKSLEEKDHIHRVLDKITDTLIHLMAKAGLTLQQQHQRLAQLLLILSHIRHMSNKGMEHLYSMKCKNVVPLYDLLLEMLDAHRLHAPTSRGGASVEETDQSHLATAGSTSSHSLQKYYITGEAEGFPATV
Experiment: Estrogen receptor relative binding affinity assay, competitive radiometric, [3H]estradiol tracer
Settings: RBA of estradiol set to 100%; 18-24 h at 0° C.
observable: ERα RBA

CC(C)c1cc(-c2ccc(OCC(=O)O)c(C(C)C)c2)ccc1OCCN(C)C = <0.001%
CN(C)CCOc1ccc(-c2ccc(OCC(=O)O)cc2)cc1 = <0.001%
CCC(C)c1cc(-c2ccc(OCC(=O)O)c(C(C)CC)c2)ccc1OCCN(C)C (stereo not shown) = ~0.001%

Give the measured ERα RBA of `CN(C)CCOc1ccc(-c2ccc(OCC(=O)O)c(Cc3ccccc3)c2)cc1Cc1ccccc1` .
<0.001%

Data provenance is patent US20110105608A1.
